Value source: PubChem BioAssay (NCI)

# Tested on: HT29 colon
# experiment-description: NCI tumour cell line growth inhibition, 48 h
Examples of compounds with documented TGI follow.

Enquiry: Record request: TGI value, item CN1Cc2c(ccc3c2OCO3)[C@@H]2[C@H](O)Cc3cc4c(cc3[C@@H]21)OCO4
Return: 5.12 µM

Enquiry: Record request: TGI value, item CCCCc1c2c(nc3c1CC/C(=C\c1ccccc1)C3=O)CCCC2
Return: 4.75 µM

Enquiry: Record request: TGI value, item CCOP(=O)(OCC)/C(C#N)=C(\C)c1ccco1
Return: > 10 µM

###

# Test system: HCT-116 colon
# experiment-description: NCI tumour cell line growth inhibition, 48 h; in the data active means GI50 below about 0.43 µM; inactive means the rest
In this exercise, the only acceptable responses are active, inactive

> print(dat)
                                   compound  class.name
1  Clc1ccc(N=CNc2ccc(-c3nc4ccccc4[nH]3)cc2)cc1    inactive
2       O=C1C(=O)c2c(ccc3ccccc23)-c2ccccc21      active
3  Nc1ccc(N)c2c1C(=O)c1cccc([N+](=O)[O-])c1C2=O    inactive
4  CS(=O)(=O)Nc1ccc(Nc2c3ccccc3nc3cc(Cl)ccc23)cc1    inactive

Enquiry: I'd appreciate the recorded outcome for CCC(=C(c1ccc(OCCN(CC)CC)cc1)c1ccc(OCCN(CC)CC)cc1)c1ccc(Cl)cc1 from this test.
Return: inactive

Enquiry: I'd appreciate the recorded outcome for O=C(COC(=O)[C@H](C[Se][Se]C[C@H](NC(=O)c1ccc(Br)cc1F)C(=O)OCC(=O)c1ccc(F)cc1)NC(=O)c1ccc(Br)cc1F)c1ccc(F)cc1 from this test.
Return: inactive

Enquiry: I'd appreciate the recorded outcome for O=C(/C=C/N1CCN(c2cccc(Cl)c2)CC1)c1ccc(Cl)cc1 from this test.
Return: inactive

Enquiry: I'd appreciate the recorded outcome for O=C(Nc1cccc(C(F)(F)F)c1)Nc1cc(S(=O)(=O)NC2CC2)ccc1-c1ccsc1 from this test.
Return: inactive

Enquiry: I'd appreciate the recorded outcome for CN(C)C(=O)c1cc2cnc(Nc3ccc(N4CCNCC4)cn3)nc2n1C1CCCC1 from this test.
Return: inactive

Enquiry: I'd appreciate the recorded outcome for COc1cc(/C=C/C(=O)c2c(-c3ccc(Cl)cc3)nc3sc(C)nn23)cc(OC)c1OC from this test.
Return: inactive

Enquiry: I'd appreciate the recorded outcome for COc1cccc2c(Nc3ccc(C(=O)NCCN4CCNCC4)cc3)cc(-c3ccccc3)nc12 from this test.
Return: inactive

Enquiry: I'd appreciate the recorded outcome for CC(=O)OC1CCC2(C)C(=CCC3C4CC(CN5CC5)C(=O)C4(C)CCC32)C1 (stereo not given) from this test.
Return: inactive

Enquiry: I'd appreciate the recorded outcome for N#Cc1c(N/N=C/c2c(Cl)cccc2Cl)nc(N)nc1N1CCCC1 from this test.
Return: inactive

Enquiry: I'd appreciate the recorded outcome for N#Cc1c(N)nc(N2CCOCC2)c(C#N)c1-c1ccc(Cl)cc1Cl from this test.
Return: inactive

Enquiry: I'd appreciate the recorded outcome for COc1ccc(C[C@H](N)C(=O)N[C@@H]2[C@@H](CO)OC(n3cnc4c(N(C)C)ncnc43)[C@@H]2O)cc1 (stereo not given in full) from this test.
Return: active

Enquiry: I'd appreciate the recorded outcome for O=C(NCc1cccnc1)c1ccc([N+](=O)[O-])o1 from this test.
Return: inactive

Enquiry: I'd appreciate the recorded outcome for Oc1ccc(/C=N/Nc2nnc(N/N=C/c3ccc(O)cc3O)c3ccccc23)c(O)c1 from this test.
Return: active

Enquiry: I'd appreciate the recorded outcome for CCNc1nc(-c2ccc(Cl)c(OC)c2)c(-c2ccnc(NCCNS(=O)(=O)c3ccc(Cl)cc3)n2)s1 from this test.
Return: inactive

Enquiry: I'd appreciate the recorded outcome for COc1cc2c(cc1OCCCN1CCN(CCCn3c4ccccc4c4ccccc43)CC1)N=C[C@@H]1CCCN1C2=O from this test.
Return: active

Enquiry: I'd appreciate the recorded outcome for COc1cc(-c2nn(-c3cccc(NC(=O)c4cccc(C(F)(F)F)c4)c3)cc2-c2ccncc2)ccc1Cl from this test.
Return: inactive

###

Examples of compounds with documented TGI follow.
# Tested on: IGROV1 ovarian
# experiment-description: NCI tumour cell line growth inhibition, 48 h
Report the value in µM with no unit label.

> print(dat)
                                test.smiles  measurement.type  observed.value
1         c1csc(-c2[nH]nc3c2CCc2ccccc2-3)c1               TGI              73
2  CCOC(=O)c1c(SCCN(CC)CC)n(-c2ccccc2)c(=S)n(-c2ccccc2)c1=O               TGI            13.2
3  O=C1COc2c(CCNCCN(C(=O)CCNCCc3ccc(Cl)c(Cl)c3)C3CCCCC3)ccc(O)c2N1               TGI            30.1

Enquiry: Record request: TGI value, item CN1CCN(Cc2ccc(NC(=O)c3cncc(C#Cc4cnc5cccnn45)c3)cc2C(F)(F)F)CC1
Return: 5.59

###

# Test system: CAKI-1 renal
# experiment-description: NCI tumour cell line growth inhibition, 48 h; in the data active means GI50 below about 0.43 µM; inactive means the rest
In this exercise, the only acceptable responses are Yes (active), No (inactive)

// known answers, use as guide
> print(dat)
                                test.smiles  class.name
1  O=C1COc2c(CCNCCN(C(=O)CCNCCc3ccc(Cl)c(Cl)c3)C3CCCCC3)ccc(O)c2N1          No
2  CC(=O)Nc1ccc(C(=O)COc2cccc(/C=C3\CCc4ccccc4C3=O)c2)cc1          No

Enquiry: I'd appreciate the recorded outcome for O=C(NCc1cccnc1)c1ccc([N+](=O)[O-])o1 from this test.
Return: No

Enquiry: I'd appreciate the recorded outcome for COc1cc2c(cc1OCCCN1CCN(CCCn3c4ccccc4c4ccccc43)CC1)N=C[C@@H]1CCCN1C2=O from this test.
Return: Yes

Enquiry: I'd appreciate the recorded outcome for CN1CCN(Cc2ccc(NC(=O)c3cncc(C#Cc4cnc5cccnn45)c3)cc2C(F)(F)F)CC1 from this test.
Return: No

Enquiry: I'd appreciate the recorded outcome for C/C(=N\NC(=O)c1ccncc1)c1ccccc1O from this test.
Return: No

Enquiry: I'd appreciate the recorded outcome for COc1ccc(-c2ccc(/C=N/n3c(COc4ccc(Cl)c(C)c4)nn(CN4CCOCC4)c3=S)o2)c([N+](=O)[O-])c1 from this test.
Return: No

Enquiry: I'd appreciate the recorded outcome for N#Cc1c(N/N=C/c2c(Cl)cccc2Cl)nc(N)nc1N1CCCC1 from this test.
Return: No

Enquiry: I'd appreciate the recorded outcome for Oc1ccc(/C=N/Nc2nnc(N/N=C/c3ccc(O)cc3O)c3ccccc23)c(O)c1 from this test.
Return: Yes

###

# System: UACC-257 melanoma
# experiment-description: NCI tumour cell line growth inhibition, 48 h
Examples of compounds with documented TGI follow.

> print(dat)
                                   compound  observed.value
1                N/N=C(\N)SCc1ccc(N=C=S)cc1        > 100 µM
2  Oc1ccc(/C=N/Nc2nnc(N/N=C/c3ccc(O)cc3O)c3ccccc23)c(O)c1         7.73 µM

Enquiry: Record request: TGI value, item Cc1cccc(Cc2cnc(NC(=O)CCCOc3ccc(Cl)cc3)s2)c1
Return: > 100 µM

Enquiry: Record request: TGI value, item Cc1cccc2c1Oc1ncccc1C2NC(=O)CN(C)C (stereo unspecified)
Return: > 10 µM

###

# System: NCI-H460 lung
In this exercise, the only acceptable responses are TRUE (active), FALSE (inactive)

compound	class-name
CC(=O)Nc1ccc(C(=O)COc2cccc(/C=C3\CCc4ccccc4C3=O)c2)cc1	FALSE
CCn1c(SC)nnc1-c1cc2c([nH]c3ccccc32)c(-c2cccc(O)c2)n1	FALSE
Brc1ccc2c(c1)-c1ccccc1C1=NCCN12	TRUE
CC(C)=NO.CC(C)=NO.CC(C)=NO.CC(C)=NO.[Ti]	FALSE

Enquiry: I'd appreciate the recorded outcome for COc1cc(/C=C/C(=O)c2c(-c3ccc(Cl)cc3)nc3sc(C)nn23)cc(OC)c1OC from this test.
Return: FALSE

Enquiry: I'd appreciate the recorded outcome for O=C1COc2c(CCNCCN(C(=O)CCNCCc3ccc(Cl)c(Cl)c3)C3CCCCC3)ccc(O)c2N1 from this test.
Return: FALSE

###

Examples of compounds with documented TGI follow.
# Tested on: TK-10 renal
# experiment-description: NCI tumour cell line growth inhibition, 48 h

Example cases with answers are listed next.
> print(dat)
                                   compound          tgt  measurement.type  observed.value
1  Cc1nc(-c2cccnc2)sc1C(=O)/C=C/c1ccc(Cl)cc1Cl  TK-10 renal               TGI        > 100 µM
2       O=C(C[N+]1(c2ccccc2)CCOCC1)c1ccccc1  TK-10 renal               TGI        > 100 µM
3      CN(C)c1ccc(/C=C2\Cc3ccccc3C2=O)cc1Br  TK-10 renal               TGI        > 100 µM
4  CCCCc1c2c(nc3c1CC/C(=C\c1ccccc1)C3=O)CCCC2  TK-10 renal               TGI         21.1 µM

Enquiry: Record request: TGI value, item NC1CC(n2ccc(=O)[nH]c2=O)OC1C(O)CO (stereo unspecified)
Return: > 100 µM

Enquiry: Record request: TGI value, item COC(=O)CCSC(=O)Nc1ccccc1Cl
Return: > 100 µM
